# TARGET OF ASSAY: human GLUT2 (Homo sapiens)
# Construct: expressed in transfected cells
# Sequence (P11168 whole entry): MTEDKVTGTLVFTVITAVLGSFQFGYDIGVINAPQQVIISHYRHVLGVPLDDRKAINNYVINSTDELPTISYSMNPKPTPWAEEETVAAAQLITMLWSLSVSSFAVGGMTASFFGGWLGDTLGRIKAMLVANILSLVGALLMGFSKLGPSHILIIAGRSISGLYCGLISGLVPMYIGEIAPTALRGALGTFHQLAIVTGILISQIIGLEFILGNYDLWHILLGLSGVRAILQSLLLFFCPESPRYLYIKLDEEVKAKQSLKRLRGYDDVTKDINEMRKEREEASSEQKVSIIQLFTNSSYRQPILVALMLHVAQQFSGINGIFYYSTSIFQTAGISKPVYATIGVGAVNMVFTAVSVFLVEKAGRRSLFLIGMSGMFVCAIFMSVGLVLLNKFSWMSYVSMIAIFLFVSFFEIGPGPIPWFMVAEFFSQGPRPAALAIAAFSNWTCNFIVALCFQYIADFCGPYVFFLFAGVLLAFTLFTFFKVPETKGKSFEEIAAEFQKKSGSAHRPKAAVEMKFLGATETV
# ASSAY SUMMARY: [3H]-deoxy-D-glucose uptake assay, GLUT2
# Assay type: cell-based
# CONDITION LABEL: [3H]-deoxy-D-glucose uptake in HEK293 cells stably expressing human GLUT2
MEASURED PROPERTY: GLUT2 pIC50

Use the examples below as a reference point.
> print(dat)
                                   compound  measured.property    experimental.value
1  CCS(=O)(=O)Nc1ccc2nc(-c3ccc(Cl)cc3)c(CN3CCN(C(C)=O)CC3)n2c1 [Compound 314]        GLUT2 pIC50  ++ (pIC50 5.00-5.99)
2  O=C(C1CCOCC1)N1CCN(Cc2c(-c3ccc(Cl)cc3Cl)nc3cnc(C4CC4)cn23)CC1 [Compound 297]        GLUT2 pIC50    +++ (pIC50 ≧ 6.00)
3  CC(=O)N1CCN(Cc2c(-c3ccc(Cl)cc3)nc3ccc(N(C)S(=O)(=O)C4CC4)cn23)CC1 [Compound 327]        GLUT2 pIC50  ++ (pIC50 5.00-5.99)
4  CN(c1ccc2nc(-c3ccc(Cl)cc3Cl)c(CN3CCN(C(=O)C4CCOCC4)CC3)n2c1)S(C)(=O)=O [Compound 372]        GLUT2 pIC50    +++ (pIC50 ≧ 6.00)
5  CSc1ccc2nc(-c3ccc(Cl)cc3)c(CN3CCN(C(C)=O)CC3)n2c1 [Compound 377]        GLUT2 pIC50  ++ (pIC50 5.00-5.99)

query: GET GLUT2 pIC50 | system: human GLUT2 (Homo sapiens) | item: CC(=O)N1CCN(Cc2c(-c3ccc(Cl)cc3Cl)nc3cnc(C4CC4)cn23)CC1 [Compound 271]
result: +++ (pIC50 ≧ 6.00)

----------
# TARGET OF ASSAY: human GLUT2 (Homo sapiens)
# Construct: expressed in transfected cells
# ASSAY SUMMARY: [3H]-deoxy-D-glucose uptake assay, GLUT2
# Format: cell-based
# CONDITION LABEL: [3H]-deoxy-D-glucose uptake in HEK293 cells stably expressing human GLUT2
# Description: HEK293 cells were engineered to stably express either human GLUT1, GLUT2, GLUt3 or GLUT4 by transfection with the pReceiver-Lv105 plasmid, containing either hGLUT1, hGLUT2, hGLUT3, or hGLUT4 gene constructs with lipofectamine 2000, hGLUT1- hGLUT2- hGLUT3- or hGLUT4-overexpressing polyclonal populations were isolated under purinomycin selective pressure (1 μg/ml) and maintained in Dulbecco's modified Eagle's medium supplemented with 1 μg/ml purinomycin+10% foetal bovine serum (FBS). […]
MEASURED PROPERTY: GLUT2 pIC50

> print(dat)
                                   compound    experimental.value
1  CCCS(=O)(=O)N(C)c1ccc2nc(-c3ccc(Cl)cc3)c(CN3CCN(C(C)=O)CC3)n2c1     +− (pIC50 < 4.00)
2  Clc1ccc(-c2nc3cnc(C4CC4)cn3c2CN2CCOCC2)cc1    +++ (pIC50 ≧ 6.00)
3  CC(=O)N1CCN(Cc2c(-c3ccc(Cl)cc3Cl)nc3cnc(NS(C)(=O)=O)cn23)CC1     +− (pIC50 < 4.00)
4  O=C1CN(Cc2c(-c3ccc(Cl)cc3)nc3ccc(-c4ccccn4)cn23)CCN1    +++ (pIC50 ≧ 6.00)
5  Clc1ccc(-c2nc3cnc(C4CC4)cn3c2CN2CCn3ncnc3C2)c(Cl)c1    +++ (pIC50 ≧ 6.00)
6  Fc1cncc(F)c1-c1ccc2nc(-c3ccc(Cl)cc3)c(CN3CCOCC3)n2c1  ++ (pIC50 5.00-5.99)
7  CCCS(=O)(=O)Nc1ccc2nc(-c3ccc(Cl)cc3)c(CN3CCN(C(C)=O)CC3)n2c1  ++ (pIC50 5.00-5.99)
8  CN(c1ccc2nc(-c3ccc(Cl)cc3Cl)c(CN3CCN(C(=O)c4ccc(F)cc4)CC3)n2c1)S(C)(=O)=O    +++ (pIC50 ≧ 6.00)

query: Tell me measured GLUT2 pIC50 for CN(c1ccc2nc(-c3ccc(Cl)cc3Cl)c(CN3CCN4C(=O)CCC4C3)n2c1)S(C)(=O)=O (stereo not shown) please.
result: +++ (pIC50 ≧ 6.00)

query: Tell me measured GLUT2 pIC50 for CC(C)(O)C(=O)N1CCN(Cc2c(-c3ccc(Cl)cc3Cl)nc3cnc(C4CC4)cn23)CC1 please.
result: +++ (pIC50 ≧ 6.00)

query: Tell me measured GLUT2 pIC50 for CCOC(=O)Cc1c(-c2ccc(Cl)cc2)nc2ccc(-c3ccccc3)cn12 please.
result: ++ (pIC50 5.00-5.99)

query: Tell me measured GLUT2 pIC50 for CN1CCN(Cc2c(-c3ccc(Cl)cc3)nc3ccc(-c4ccccc4)cn23)CCC1=O please.
result: +++ (pIC50 ≧ 6.00)

----------
# TARGET OF ASSAY: human GLUT1 (Homo sapiens)
# Construct: expressed in transfected cells
# Sequence (P11166 1-492): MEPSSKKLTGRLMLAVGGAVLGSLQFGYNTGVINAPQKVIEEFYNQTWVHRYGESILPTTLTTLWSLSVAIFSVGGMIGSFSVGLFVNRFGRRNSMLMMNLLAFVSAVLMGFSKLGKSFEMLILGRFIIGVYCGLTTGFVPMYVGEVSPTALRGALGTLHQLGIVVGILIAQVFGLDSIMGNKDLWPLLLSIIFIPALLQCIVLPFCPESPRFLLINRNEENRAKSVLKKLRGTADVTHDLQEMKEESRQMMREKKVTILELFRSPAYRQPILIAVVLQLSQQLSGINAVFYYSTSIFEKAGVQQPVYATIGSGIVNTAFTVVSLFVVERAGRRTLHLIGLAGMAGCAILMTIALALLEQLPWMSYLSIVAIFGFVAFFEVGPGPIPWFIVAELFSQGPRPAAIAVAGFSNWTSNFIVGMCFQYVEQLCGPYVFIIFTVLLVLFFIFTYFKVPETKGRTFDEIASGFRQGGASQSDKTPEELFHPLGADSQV
# ASSAY SUMMARY: [3H]-deoxy-D-glucose uptake assay, GLUT1
# Assay type: cell-based
# CONDITION LABEL: [3H]-deoxy-D-glucose uptake in HEK293 cells stably expressing human GLUT1
MEASURED PROPERTY: GLUT1 pIC50

Use the examples below as a reference point.
> print(dat)
                                   molecule             target.of.assay  measured.property    experimental.value
1  FC(F)(F)c1ccc(-c2nc3ccc(-c4ccccc4)cn3c2CN2CCOCC2)cc1 [Compound 112]  human GLUT1 (Homo sapiens)        GLUT1 pIC50  ++ (pIC50 5.00-5.99)
2  CC(=O)N1CCN(Cc2c(-c3ccc(Cl)cc3)nc3cnc(C4CC4)cn23)CC1 [Compound 187]  human GLUT1 (Homo sapiens)        GLUT1 pIC50    +++ (pIC50 ≧ 6.00)
3  Clc1ccc(-c2nc3ccc(-c4ccccn4)cn3c2CN2CCn3ncnc3C2)c(Cl)c1 [Compound 299]  human GLUT1 (Homo sapiens)        GLUT1 pIC50    +++ (pIC50 ≧ 6.00)
4  Clc1ccc(-c2nc3ccc(-c4ccccc4)cn3c2CNC2CCOCC2)cc1 [Compound 188]  human GLUT1 (Homo sapiens)        GLUT1 pIC50  ++ (pIC50 5.00-5.99)
5  CC(C)CC(=O)N1CCN(Cc2c(-c3ccc(Cl)cc3)nc3ccc(-c4ccccc4)cn23)CC1 [Compound 43]  human GLUT1 (Homo sapiens)        GLUT1 pIC50    +++ (pIC50 ≧ 6.00)

query: GET GLUT1 pIC50 | system: human GLUT1 (Homo sapiens) | item: O=C1CCN(Cc2c(-c3ccc(Cl)cc3)nc3ccc(-c4ccccc4)cn23)CCN1 [Compound 227]
result: +++ (pIC50 ≧ 6.00)

----------
# TARGET OF ASSAY: human GLUT2 (Homo sapiens)
# Construct: expressed in transfected cells
# ASSAY SUMMARY: [3H]-deoxy-D-glucose uptake assay, GLUT2
# Format: cell-based
# CONDITION LABEL: [3H]-deoxy-D-glucose uptake in HEK293 cells stably expressing human GLUT2
MEASURED PROPERTY: GLUT2 pIC50

> print(dat)
                         chemical.structure  measured.property    experimental.value
1  CN(c1ccc2nc(-c3ccc(Cl)cc3)c(CN3CCN(C(=O)c4ccnnc4)CC3)n2c1)S(C)(=O)=O        GLUT2 pIC50  ++ (pIC50 5.00-5.99)
2  Clc1ccc(-c2nc3ccc(-c4ccccc4)cn3c2CCN2CCOCC2)cc1        GLUT2 pIC50  ++ (pIC50 5.00-5.99)
